# Assay overview: Solubility study of Compound (II) in lipid excipients and surfactants
# Type: physicochemical
# Applied conditions: oil or lipid, thermodynamic from solid; excipient Gelucire 44/14; read-out: Limit of solubility in Gelucire 44/14
Assay endpoint: solubility

INSERT INTO measurements (smiles_notation, measured_result) VALUES
  ('C[C@H](CCOc1cccc(CC(=O)O)c1)N(Cc1cccc(C(F)(F)F)c1Cl)CC(c1ccccc1)c1ccccc1', '> 200 mg/mL');

* * *

# Assay overview: Solubility study of Compound (II) in lipid excipients and surfactants
# Type: physicochemical
# Applied conditions: oil or lipid, thermodynamic from solid; excipient Peceol; read-out: Limit of solubility in Peceol
Assay endpoint: solubility

INSERT INTO measurements (smiles_notation, assay_endpoint, measured_result) VALUES
  ('C[C@H](CCOc1cccc(CC(=O)O)c1)N(Cc1cccc(C(F)(F)F)c1Cl)CC(c1ccccc1)c1ccccc1', 'solubility', '> 200 mg/mL');

* * *

# Assay overview: Solubility study of Compound (II) in lipid excipients and surfactants
# Format: physicochemical
# Applied conditions: organic solvent or mixture, thermodynamic from solid; excipient PEG-400; read-out: Limit of solubility in PEG-400
Assay endpoint: solubility

INSERT INTO results (smiles_notation, assay_endpoint, measured_result) VALUES
  ('C[C@H](CCOc1cccc(CC(=O)O)c1)N(Cc1cccc(C(F)(F)F)c1Cl)CC(c1ccccc1)c1ccccc1', 'solubility', '> 200 mg/mL');

* * *

# Assay overview: Solubility study of Compound (II) in lipid excipients and surfactants
# Type: physicochemical
# Applied conditions: oil or lipid, thermodynamic from solid; excipient Labrafil M 2125 CS; read-out: Limit of solubility in Labrafil M 2125 CS
Assay endpoint: solubility

INSERT INTO assay_data (compound, measured_result) VALUES
  ('C[C@H](CCOc1cccc(CC(=O)O)c1)N(Cc1cccc(C(F)(F)F)c1Cl)CC(c1ccccc1)c1ccccc1 [Compound (II)]', '> 200 mg/mL');

* * *

# Assay overview: Solubility study of Compound (II) in lipid excipients and surfactants
# Type: physicochemical
# Applied conditions: organic solvent or mixture, thermodynamic from solid; excipient PEG-300; read-out: Limit of solubility in PEG-300
# Description: Compound (II) HCl and Compound (II) free base was weighed into vials and the appropriate amount of excipient was added to achieve the desired concentration. Heating and sonication was used, if necessary, to achieve clear solutions. Limits of solubility of Compound (II) free base and Compound (II) HCl (amorphous form) are noted in Table 1.
Assay endpoint: solubility

INSERT INTO measurements (smiles_notation, measured_result) VALUES
  ('C[C@H](CCOc1cccc(CC(=O)O)c1)N(Cc1cccc(C(F)(F)F)c1Cl)CC(c1ccccc1)c1ccccc1', '> 200 mg/mL');

* * *

# Assay overview: Solubility study of Compound (II) in lipid excipients and surfactants
# Format: physicochemical
# Applied conditions: oil or lipid, thermodynamic from solid; excipient Lauroglycol 90; read-out: Limit of solubility in Lauroglycol 90
Assay endpoint: solubility

INSERT INTO assay_data (smiles_notation, measured_result) VALUES
  ('C[C@H](CCOc1cccc(CC(=O)O)c1)N(Cc1cccc(C(F)(F)F)c1Cl)CC(c1ccccc1)c1ccccc1', '> 200 mg/mL');

* * *

# Assay overview: Solubility study of Compound (II) in lipid excipients and surfactants
# Type: physicochemical
# Applied conditions: organic solvent or mixture, thermodynamic from solid; excipient Propylene Glycol; read-out: Limit of solubility in Propylene Glycol
Assay endpoint: solubility

INSERT INTO results (compound, measured_result) VALUES
  ('C[C@H](CCOc1cccc(CC(=O)O)c1)N(Cc1cccc(C(F)(F)F)c1Cl)CC(c1ccccc1)c1ccccc1 [Compound (II)]', '> 200 mg/mL');

Hey, just so you know, these numbers are from patent US11629118B2.
